Each recorded value in this set is attributed to the supplement of paper PMC6755084.

Exercise: state measured fraction ligated for each of the variants provided.
B1: F1*; the commonest letter at each place (parent)
chain: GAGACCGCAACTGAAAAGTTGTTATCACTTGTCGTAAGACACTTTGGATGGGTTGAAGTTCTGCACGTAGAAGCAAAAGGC

# Variants of: B1
# METHOD_SUMMARY: fraction ligated after 30 min (ligated reads / total reads); higher = more ligase activity
# MEASUREMENT_CONTEXT: with F1*sub RNA substrate (template-directed ligation), 42 °C
API note: the answer field is a bare number with no unit suffix.

Determine from records and report fraction ligated for GAGACCGCAACTGAAAAGTTGTTATCACTTGTCGGAAGACACTTTGGATGGGTTGTAGTTCTGCACGTAGAAGCAAAAGGC [T35G A56T]
0.802

Supply measured fraction ligated of GAGACCGCAACTGAAAAGTTGTTATCCCTTGTCGTAAGAAACTTTGGATGGGTTGAAGTTCTGCACGTAGAAGCAAAAGGC [A27C C40A] in your reply.
0.817

Item GAGACCGCAACTGAAAAGTTGTTATCACTTGTGGTGAGACACTTTGGATGGGTTGAAGTTCTGCACGTAGAAGCAAAAGGC [C33G A36G] : provide fraction ligated
0.821

# return recorded fraction ligated for input GAGACCGCAACTGAAAAGTTGTTAGCACTTGTCGTAAGACACTTTGGATGGGTTGAAGTTCTGCACGTAGAAGCAAAAGGC [T25G]
0.784

Indicate its recorded fraction ligated; the variant in question is GAGACCGCAACTGAAAAGTTGTTATCACTTATCGTAAGACACTTTGGATGGGTTGAAGTTCTGCACGTAGAAGCAAAAGGC [G31A]
0.812

Please report the measured fraction ligated for GAGACCGCAACTGAAAAGTTGTAATCAATTGTCGTAAGACACTTTGGATGGGTTGAAGTTCTGCACGTAGAAGCAAAAGGC [T23A C28A]
0.787

Annotate the variant GAGACCGCAACTGAAAAGTTGTTATCTCTCGTCGTAAGACACTTTGGATGGGTTGAAGTTCTGCACGTAGAAGCAAAAGGC [A27T T30C] with its measured fraction ligated.
0.804

Please look at this variant and report its fraction ligated: GAGACCGCAACTGAAAAGTTGTTATCACTTGTCGGAAGACACTTTCGATGGGTTGAAGTTCTGCACGTAGAAGCAAAAGGC [T35G G46C]
0.803

Name the recorded fraction ligated of the item GAGACCGCAACTGAAAAGTTGTTATCACTTGTGGTAAGACACTCTGGATGGGTTGAAGTTCTGCACGTAGAAGCAAAAGGC [C33G T44C] in your answer.
0.804

Please give the documented fraction ligated of GAGACCGCAACTGAAAAGTTGTTATCACTTGTGGTAAGACACTTTAGATGGGTTGAAGTTCTGCACGTAGAAGCAAAAGGC [C33G G46A]
0.811

Please report the measured fraction ligated for GAGACCGCAACTGAAAAGTTGTGATCACTTGTCGTATGACACTTTGGATGGGTTGAAGTTCTGCACGTAGAAGCAAAAGGC [T23G A37T]
0.821

Read off the recorded fraction ligated for GAGACCGCAACTGAAAAGTTGTTATCACTTGTCGTAAGACATTTTTGATGGGTTGAAGTTCTGCACGTAGAAGCAAAAGGC [C42T G46T]
0.805

Let me know recorded fraction ligated for GAGACCGCAACTGAAAAGTTGTTATCACTTGTCGTAAGACACTTCGGATGGGTTGATGTTCTGCACGTAGAAGCAAAAGGC [T45C A57T] , thanks.
0.777

For GAGACCGCAACTGAAAAGTTGTTATCACTGGTCGTAAGACACTTTGGATGGGTTGACGTTCTGCACGTAGAAGCAAAAGGC [T30G A57C] , write its fraction ligated.
0.806
